Target: Su(dx) WW4 domain (Drosophila, UniProt Q9Y0H4 515-557)
Sequence (Q9Y0H4 515-557): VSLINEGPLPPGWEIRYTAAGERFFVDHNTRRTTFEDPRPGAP
Experiment: ITC
READOUT_LABEL: Kd (µM)
Unit µM implied. Number only.

>>> df
                                     binder  readout_label  result_number
0  AKQPPSYEDCIK [Notch PY motif peptide N1]             Kd             45

Read the next record carefully.
Please look up its Kd: AKQPPSYEDC [Notch PY motif peptide N2] 45
